conditionSummary: buffer; pH 7.4; 200.0 µM
recordedEndpoint: solubility kinetic (µg/mL)
A number alone suffices; assume µg/mL.

Examples with their reported solubility kinetic follow.
CC(C)(C)NC(=O)COc1ccc(CNc2ccc3[nH]c(=O)[nH]c3c2)cc1
0.8
O=C(/C=C/c1ccc(S(=O)(=O)N2CCOCC2)cc1)Nc1ccc(F)c(F)c1F
6.9
O=C1CSC(=S)N1c1cccc(Cl)c1
0.7
Cc1cnc(C(=O)OCC(=O)N=c2sccn2Cc2ccccc2Cl)cn1
55.2

Inquiry: Recorded solubility kinetic for CC1=C(C(=O)OCCC(C)C)C(c2ccc3c(c2)OCO3)NC(=O)N1 (configuration not stated) , please?
Reply text: 6.2

Inquiry: // lookup solubility kinetic for `Nc1ccccc1SCc1ccccc1Cl`
Reply text: 3.3

Inquiry: Entry `Cc1ccc(CNC(=O)CSc2ccsc2[N+](=O)[O-])cc1` : reported solubility kinetic = ?
Reply text: 5.3

====

conditionSummary: buffer; pH 7.4; 200.0 µM
recordedEndpoint: log10(solubility kinetic) (log10 of the value in µg/mL)
Base-10 log of solubility kinetic, unit µg/mL.

O=C(c1ccc(F)cc1)N(c1ccccn1)C1CCCCC1
1.63
CCC(Sc1nc2ncnc(N)c2[nH]1)C(=O)O (stereo unspecified)
1.53
Cc1ccc2c(c1)C1C[N+](C)(CC(=O)c3ccccc3)CCC1N2C(=O)c1ccccc1Cl.[Br-] (stereo unspecified)
1.89

Inquiry: Suppose we examine the compound `COc1ccc(C(=O)CNc2ccc(C)cc2C)cc1` ; what log10(solubility kinetic) value has been reported?
Reply text: 0.76

Inquiry: Requested read-out: log10(solubility kinetic). Entry: CN1C(=O)C2(OCC(C)([N+](=O)[O-])CO2)c2ccccc21 (stereo unspecified)
Reply text: 1.34

Inquiry: Consider the compound `O=C(NCc1ccc2c(c1)CCO2)Nc1ccccc1` and give its measured log10(solubility kinetic).
Reply text: 0.94

Inquiry: Give the measured log10(solubility kinetic) of `CC(=O)c1cccc(NC(=O)NCCc2ccc(Cl)cc2)c1` .
Reply text: 0.20

====

conditionSummary: buffer; pH 7.4; 200.0 µM
// class assignment uses solubility kinetic with these ranges: A = under 9 µg/mL, B = from 9 µg/mL up to 30 µg/mL, C = 30 µg/mL and over

Some solved entries appear below for comparison.
CC1=NCCN1CCNC(=O)Nc1cc(C)cc(C)c1
C
CC(OC(=O)c1cccnc1Cl)C(=O)Nc1ccc2c(c1)OCO2 (stereo not given)
C
Cc1cccc(NC(=O)C(=O)C2C(=O)Nc3ccccc32)c1 (stereo not given)
C
Cn1c(=O)c(Sc2ccccc2)c(O)c2ccccc21
C
Cc1cc2sc(NC(=O)c3ccco3)nc2cc1Cl
A
CCC(C(=O)OC)n1cnc2c(oc3ccccc32)c1=O (stereo not given)
C

Inquiry: Band assignment needed for Br.CCC1CC(CSC(=N)N)OC1=O (stereo not given) please.
Reply text: C

Inquiry: Into which category would you place S=C1Cc2ccccc2C(c2ccc(Cl)cc2)N1 (stereo not given) ?
Reply text: A

Inquiry: Which class is correct for the following compound? `O=C(NC1CCCCC1)c1cccc(S(=O)(=O)N2CCCCC2)c1`
Reply text: A

Inquiry: Please classify: `CC(=O)Nc1ccc(NC(=O)c2ccccc2Nc2ccccc2)cc1`
Reply text: A

Inquiry: Lab note: sort `Cc1ccc(C2=N/C(=C\c3ccc(F)cc3)C(=O)N2)cc1` into the matching solubility kinetic band.
Reply text: A

Inquiry: Categorize the following entry: `C[C@H](NC(=O)c1ccc(C(C)(C)C)cc1)C(=O)N1CCN(C/C=C/c2ccccc2)CC1`
Reply text: B

====

As shown below, each of these compounds has a reported solubility kinetic value.
conditionSummary: buffer; pH 7.4; 200.0 µM
Reply with just the number (in µg/mL).

See these solved cases before continuing.
COc1ccccc1CNC(=O)c1ccc2ccccc2n1
15.8
Cc1cc(C)nc(SCC(=O)Nc2ccc3c(c2)OCO3)n1
45.8

Inquiry: I'd like to know its solubility kinetic. The compound in question is COc1ccccc1N1CCNC(C)C1=O.Cl (stereo not given)
Reply text: 33.4

Inquiry: Could you share which solubility kinetic value was measured for `O=C(Oc1ccc(Cl)c2cccnc12)c1cccnc1` ?
Reply text: 30

Inquiry: Need solubility kinetic, item `CC(C)C[C@H](NC(=O)Nc1ccc2c(c1)OCCO2)C(=O)O`
Reply text: 41.1

Inquiry: Dear colleague, I am looking for the recorded solubility kinetic of the following compound: `O=c1c2ccccc2nc(-c2ccccc2)n1-c1ccccc1`
Reply text: 43.6

Inquiry: Which value of solubility kinetic has been reported for O=C(Nc1cccc(Cl)c1)C1CC1c1ccccc1 (stereo not given) in the records?
Reply text: 3.3

Inquiry: Any idea what solubility kinetic was measured for `O=S(=O)(NCc1ccco1)c1ccc2ccccc2c1` ?
Reply text: 11.3

Inquiry: solubility kinetic lookup needed for `O=C(Nc1cccc2ccccc12)c1cccc([N+](=O)[O-])c1` , thanks.
Reply text: 1.4

Inquiry: Data request, read-out solubility kinetic, for `CCN(CC)c1ccc(C(=O)c2cnc(/N=C/N(C)C)s2)cc1`
Reply text: 48.6

Inquiry: Recorded solubility kinetic for `Cc1ccccc1NC(=O)Cc1c[nH]c2ccccc12` , please?
Reply text: 39.5

Inquiry: Reported solubility kinetic, compound `Cc1onc(-c2ccccc2)c1C(=O)Nc1cccc(S(=O)(=O)N2CCCCC2)c1` : ____
Reply text: 2.5

Inquiry: Given the compound Cc1ccc(C)c(NC(=O)CCN2CC(C)CC(C)C2)c1 (stereo not given) , what is its reported solubility kinetic?
Reply text: 32.7

====

conditionSummary: buffer; pH 7.4; 200.0 µM
recordedEndpoint: solubility kinetic (µg/mL)
Report the figure in µg/mL without appending any unit label.

Worked examples, 5 molecules total:
CC1CC(Nc2ccccc2)c2ccccc2N1C(=O)c1ccncc1 (configuration not stated)
25.9
CCCCc1ccc(NC(=O)C2CCCC2)cc1
1.9
CC(C)C(=O)Nc1cc(C(F)(F)F)ccc1-n1ccnc1
38.8
Cc1ccc2nc3c(nc2c1C)CCCC3
7.1
Cc1ccc(/C=C2/SC(=O)NC2=S)o1
31.1

Inquiry: What value of measured solubility kinetic is listed for `Cc1nc(N2CCOCC2)nc(Oc2ccccc2F)c1[N+](=O)[O-]` ?
Reply text: 1.5

Inquiry: Param item = CCOC(=O)C1=C(C)OC(N)=C(C#N)C1c1cc(SCC)oc1C (configuration not stated) ; retrieve measured solubility kinetic.
Reply text: 23.9

Inquiry: Value lookup for solubility kinetic; key = `O=C(CCc1c[nH]c2ccccc12)N1CCCCCCC1`
Reply text: 17.9

Inquiry: What value of solubility kinetic has been reported for the following molecule? `Cc1cc(C)cc(C(=O)OCC(=O)NC2CCCC2)c1`
Reply text: 21.7

====

conditionSummary: buffer; pH 7.4; 200.0 µM
Cut-off 3 µg/mL on solubility kinetic, inclusive. At or above means class 1; below means class 0.

Look over these answered cases.
CCOC(=O)C1CCCN(CCSc2ccc(C)cc2)C1.Cl (configuration not stated)
class 1
O=C(Cn1ncc(Cl)c(Cl)c1=O)NC1CCCCC1
class 1
O=C(/C=C/c1ccc(O)c([N+](=O)[O-])c1)c1ccc2ccccc2c1
class 0
O=C(OCCN1C(=O)c2ccccc2C1=O)Oc1ccccc1
class 1
Cc1noc(C)c1COC(=O)CNC(=O)c1ccc(Cl)cc1
class 1
COc1ccc(C(=O)c2sc(Nc3ccccc3)nc2N)cc1OC
class 0
O=C(O)c1cccc(S(=O)(=O)Nc2cccc3ccccc23)c1
class 1
C=CCn1ccc2c([N+](=O)[O-])cccc2c1=O
class 1

Inquiry: Quick check: does `Nc1nc2c(Cl)cc(Cl)cc2s1` have solubility kinetic greater than or equal to 3 µg/mL?
Reply text: class 1

Inquiry: Is the recorded value of solubility kinetic equal to or greater than 3 µg/mL for this compound? `O=Cc1cnc(N2CCCCC2)s1`
Reply text: class 1

Inquiry: Quick check, solubility kinetic >= 3 µg/mL? `O=S(=O)(Nc1ccccc1N1CCOCC1)c1cccs1`
Reply text: class 1

====

solubility kinetic values by entry
conditionSummary: buffer; pH 7.4; 200.0 µM
State the answer as a number, implicitly in µg/mL.

The examples below pair each entry with its known result.
COCCSc1ccccc1C(=O)Nc1ccc(Br)cc1
43.1
CSc1cccc(NC(=O)CCCNC(=O)c2ccc(Cl)cc2)c1
4.5
N/C(=N\OC(=O)Cc1ccc([N+](=O)[O-])cc1)c1ccccn1
26.6
CC1(C)Cc2cccc(C(=O)NC3CCN(Cc4ccccc4)CC3)c2O1
53.2
CCN(C(=O)COc1ccc(C)cc1OC)c1cccc2ccccc12
33.7
CC(=O)N(CCC1(C(C)C)CCOC(C)(C)C1)C(C)c1cccs1 (centres undefined)
51.1
CS(=O)(=O)Nc1ccccc1N=C(c1ccccc1)c1ccccc1
23.2
CC(C)[N+]1=C2C=CC=CC=C2SC12C([N+](=O)[O-])=CC(=[N+]([O-])[O-])C=C2[N+](=O)[O-] (centres undefined)
1.3

Inquiry: Any idea what solubility kinetic was measured for Cc1ccc(C2(c3ccc(C)cc3)CC2C(=O)NC(C)C)cc1 (centres undefined) ?
Reply text: 1

Inquiry: Please give the measured solubility kinetic for this compound: `O=C(NCCCSc1ccccc1)c1cc(Cl)ccc1O`
Reply text: 0.9

Inquiry: Given the compound COc1cc(C2C(C#N)=C(N)OC3=C2C(=O)CC(C)(C)C3)cc2c1OCO2 (centres undefined) , what is its reported solubility kinetic?
Reply text: 21.6

Inquiry: State the recorded solubility kinetic for this entry: `COC(=O)c1cn(C(=O)c2cccc(C)c2)c2ccccc12`
Reply text: 3.9

Inquiry: Entry under review: `CCOc1ccc(N/C(=N/c2nc(C)cc(C)n2)NC(C)=O)cc1` . Reported solubility kinetic?
Reply text: 15.1
